Reference for the values: paper doi:10.1101/2021.04.29.441652v1

target: UniProt:Q5BJF2; assay: biochemical; format: Expi293 membranes; conditions: read-out: % of control remaining
Reported Metric: remaining activity at 1 µM (%)
Give bare numbers, in %.

Use these answered entries as a reference point.
Please look up its remaining activity at 1 µM: O=C([C@H]1Cc2ccccc21)N1CC[C@H](NCc2ccncc2Cl)C1 [ZINC001019309159]
99.6

Sample O[C@@]1(CNCc2cccc3c2OCC3)CCc2ccccc21 [ZINC000921927365] — what was its remaining activity at 1 µM?
12.5

# lookup: remaining activity at 1 µM of O=C1CCCCN1C1CCN(C[C@H](O)C[C@]2(O)CCOC2)CC1 [ZINC000929842198]
104

Please state, for each entry, its recorded remaining activity at 1 µM.
1. C[C@H](CN(C)CC(=O)NCc1cccc(Cl)c1)c1ccccc1 [ZINC000589606863]
2. Brc1ccccc1-n1cc(CN2CC[C@@H]3CCC[C@@H]32)nn1 [ZINC000685844120]
3. COC(=O)[C@@H]1C[C@H](O)CN(C(=O)C(=O)N[C@H](C)C2CCOCC2)C1 [ZINC001326422624]
4. CN(C)S(=O)(=O)N(C)CC(=O)N[C@@H]1COc2cc(F)ccc2C1 [ZINC000618647685]
5. Cc1nc(C)c(CC(=O)N2CC[C@H](NC(=O)c3cnn[nH]3)C2)c(O)n1 [ZINC000938242679]
6. N[C@@H](CC(=O)Nc1cccc(C(=O)N2CCCC2)c1)c1ccccc1 [ZINC000237909071]

1. 68.9
2. 51.3
3. 99.2
4. 91.7
5. 107
6. 89

Okay, here is my list. What is remaining activity at 1 µM for each of these?
1. O[C@@H](CN1CC[C@@H](C2CCCCC2)C1)CC1(O)CCCCC1 [ZINC001460371878]
2. Cc1c(C(=O)NC2CN(C(=O)c3cnns3)C2)ccc2cncn12 [ZINC000995014137]
3. CN(C(=O)CN1CCC(c2cnc[nH]2)CC1)C(c1ccccc1)c1ccccc1 [ZINC000435004139]
4. COc1ccccc1O[C@H](C)CN[C@@H](C)c1ccccc1OC [ZINC000129576345]
5. C[C@H](COc1ccc(Cl)c(Cl)c1)N[C@@H](C)Cn1cncn1 [ZINC000296612417]

10.9
123
99.6
14.2
59.2

Report remaining activity at 1 µM for every entry below.
1. COC(=O)[C@@H](NCC[C@H](C)N(C)Cc1ccccc1)c1cccc(C#N)c1 [ZINC000176805277]
2. CC(C)Sc1ccc([N+](=O)[O-])cc1C(=O)N(C)C[C@H]1CCCN1C [ZINC000421710406]

1. 41.6
2. 81.8

What measured remaining activity at 1 µM goes with COCCN1CCC(N[C@H]2COc3cc(F)c(Br)cc32)CC1 [ZINC000504552433] ?
49.2

---

I'd appreciate it if you could supply remaining activity at 1 µM values for the items below.
target: human σ2 receptor (TMEM97) (Homo sapiens, UniProt Q5BJF2); assay: biochemical; format: Expi293 membranes; settings: read-out: % of control remaining
Sequence (Q5BJF2 whole entry): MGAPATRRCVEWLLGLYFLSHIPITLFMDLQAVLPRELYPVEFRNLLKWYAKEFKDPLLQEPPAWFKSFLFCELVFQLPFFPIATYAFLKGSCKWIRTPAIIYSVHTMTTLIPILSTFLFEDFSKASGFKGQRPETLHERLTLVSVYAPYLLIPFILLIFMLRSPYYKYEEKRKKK
Numbers only, in %.

# example entries with known answers
What value of remaining activity at 1 µM has been reported for the following compound? Brc1ccccc1CNc1nccn1Cc1ccccc1 [ZINC000508455082]
69.3

Name the recorded remaining activity at 1 µM for CN1CCC(C)(CNC(=O)Nc2ccc(Br)nc2)CC1 [ZINC000272631760] .
91.2

Count: 3. Required value per item: remaining activity at 1 µM.
1. NC(=O)c1ccccc1N1CC[C@H](NC(=O)CC2CCNCC2)C1 [ZINC000378210510]
2. Cc1cc(C)cc(NC(=O)[C@H](C)N2CC[C@@H](C3CCOCC3)C2)c1 [ZINC000374368469]
3. Cc1ccccc1CN[C@H]1C[C@H](NC(=O)c2cn(C)c(=O)nc2O)C1 [ZINC001021041334]

95.3
5.8
86.2

---

target: human σ2 receptor (TMEM97) (Homo sapiens, UniProt Q5BJF2); experiment: biochemical; format: Expi293 membranes; conditions: read-out: % of control remaining
// assign satisfied if remaining activity at 1 µM falls strictly below 60%, else not satisfied (ties count as not satisfied)

Look over these answered cases.
Hello, I'm reviewing records and need to know if remaining activity at 1 µM of C[C@@H](NC(=O)C(=O)NCCCN1CCC[C@H](C(N)=O)C1)C1CCC1 is below 60%. Could you check?
not satisfied

Is 60% strictly greater than the compound's reported remaining activity at 1 µM? compound: Cc1ccc2c(c1)CC[C@H]2N[C@@H](CO)Cc1ccccc1
not satisfied

Determine if O=C(NC[C@@H]1CN2CCC[C@@H]2CO1)C(=O)N[C@@H]1CC[C@H]2CCC[C@@H]2C1 shows remaining activity at 1 µM strictly lower than 60%.
not satisfied

More entries:
Answer whether the compound COc1cc(NC(=O)CC2(N)CC2)cc(OC)c1Br has remaining activity at 1 µM strictly less than 60%
not satisfied

Given the entry COC(=O)[C@@H](C)CS(=O)(=O)N[C@@H]1CCN(CC2CCCC2)C1 , would its reported remaining activity at 1 µM be below 60%?
satisfied

Check if remaining activity at 1 µM falls below 60% for C[C@@H](C(=O)Nc1cccc(C2CCCCC2)c1)N1CCN(C)CC1 .
not satisfied

Problem: For the compound COCCn1cc(C(=O)N2C[C@@H](C)[C@@H](NCc3ccccn3)C2)nn1 , is remaining activity at 1 µM under 60%?
not satisfied

Lab note: confirm whether the reported remaining activity at 1 µM for this compound is below 60%, equality not counting. compound: Cc1csc2nc(CN[C@H]3C[C@H](OCc4ccccc4)C3(C)C)cc(=O)n12
satisfied

# TODO verify remaining activity at 1 µM < 60% strictly for this compound: CC[C@H]1CCN(CC(=O)Nc2cc(Cl)ccc2C#N)[C@H]1C
not satisfied

Does Cc1cnc(CN2CC[C@@H](CCNC(=O)c3cncs3)C2)s1 have remaining activity at 1 µM strictly under 60%?
not satisfied

---

target: human σ2 receptor (TMEM97) (Homo sapiens, UniProt Q5BJF2); assay: biochemical; assay type: Expi293 membranes; conditions: read-out: % of control remaining
Reported Metric: remaining activity at 1 µM (%)
Numbers only, in %.

For every item in the list below, what is its measured remaining activity at 1 µM?
1. C[C@H](Cn1ncc2ccccc2c1=O)N[C@@H](C)Cc1ccc2c(c1)CCCC2 [ZINC000657934399]
2. C[C@@H]1C[C@@H](c2ccccc2)CCN1Cc1nc(C2CC2)cs1 [ZINC000439311985]
3. CC[C@@]1(C)Oc2ccc(NC(=O)C(=O)NC[C@@H]3CCN(C)C3)cc2O1 [ZINC000276781830]
4. CCCn1c(C)cc(/C=C(/C#N)C(=O)NCCN(C)Cc2ccccc2)c1C [ZINC000064804934]
5. C[C@H](Nc1nc(N)nc(N)n1)c1ccccc1C(F)(F)F [ZINC000858362097]

1: 13.3; 2: 106; 3: 97.6; 4: 85; 5: 142

Report remaining activity at 1 µM for each item below.
1. Cc1cccc(CNc2nccn2Cc2ccccc2)c1C [ZINC000508475661]
2. O[C@H](CN1CC[C@@H](Cc2nccs2)C1)c1c(F)cccc1F [ZINC000934332177]
3. C[C@@H](N[C@H]1Cc2ccccc2NC1=O)[C@@H]1C[C@H]1c1ccc(Cl)s1 [ZINC000528002641]

1: 38.6; 2: 34; 3: 84

---

biological target: human σ2 receptor (TMEM97) (Homo sapiens, UniProt Q5BJF2); test: biochemical; type: Expi293 membranes; conditions: read-out: % of control remaining
Would you mind telling me the reported remaining activity at 1 µM of each entry?
Answers are plain numbers, in %.

# remaining activity at 1 µM lookup, item CC[C@@H](C)NC(=O)[C@@H](C)N1CCC(c2c[nH]c3ccccc23)CC1 [ZINC000073649189]
74.2

Please give remaining activity at 1 µM, item by item, for the list that follows.
1. Cc1cc(C)cc(C2=CCN(CCC(=O)N3CCc4ccccc43)CC2)c1 [ZINC001168222793]
2. CCN(CC)[C@H]1CCN(CC(=O)N[C@@H](c2ccccc2)c2cccs2)C1 [ZINC000464767692]
3. c1ccc(CSc2cncc(N3CCC[C@H](N4CCCC4)CC3)n2)cc1 [ZINC000301801549]

1. 13.7
2. 73.8
3. 6.9

---

biological target: human σ2 receptor (TMEM97) (Homo sapiens); assay: biochemical; format: Expi293 membranes
Could you please report measured Ki for the items listed next?
Answers are plain numbers, in nM.

Worked examples follow.
# input compound: Cc1cccc(C)c1OC[C@H](O)CN1CC[C@@H](CC2CC2)C1 [ZINC000559413424] ; wanted: its Ki
10.5

// query Ki value for entry O[C@@]1(CNCc2cccc3c2OCC3)CCc2ccccc21 [ZINC000921927365]
67.3

Can you look up the measured Ki of CN(C[C@]1(O)CCN(Cc2ccccc2)C1)C(=O)c1ccc(F)c2ccccc12 [ZINC000480785335] for me?
12.9

// query Ki value for entry O[C@@H](COCc1ccccc1F)CN1CC(Cc2ccccc2C(F)(F)F)C1 [ZINC001254761628]
4.7

Suppose we examine the compound CC1CC(CN2CC(N3CCN(C(=O)[C@H](C)C4CCCC4)CC3)C2)C1 (stereo partly shown) [ZINC000941634458] ; what Ki value has been reported?
20.3

So what does the record say about Ki for c1ccc(CSc2cncc(N3CCC[C@H](N4CCCC4)CC3)n2)cc1 [ZINC000301801549] ?
19.6

Value lookup for Ki; key = C1CCC([C@@H]2CCN(CCC3CCOCC3)C2)CC1 [ZINC000661577595]
1.76

Can you share its Ki? I mean this compound: N/C(=N\Cc1ccc(F)cc1Br)NCC1CCC1 [ZINC000170908795]
6.7

Would you mind giving Ki for every compound in the list below?
1. Cc1ccc(CC2CN(CC3(O)CCSCC3)C2)cc1 [ZINC000656714762]
2. C[C@H](C(=O)NC[C@]1(O)CCN(CCC2CCCC2)C1)c1ccccc1 [ZINC001376084945]
3. O=C(CC1CCCC1)NC1CCN(C[C@H](O)C2CCCCC2)CC1 [ZINC000191344346]
4. CC(C)(C)[C@@H]1CCN(C[C@@H](O)COCc2ccccc2F)C1 [ZINC000409447221]
5. C[C@@H](c1ccccc1)[C@@H](O)CN1CCC(c2c[nH]c3ncccc23)CC1 [ZINC000450573233]

67.8
13.5
11.7
8.85
4.3
